test system: ryegrass, Italian (Italian ryegrass, Lolium multiflorum); test: Test A postemergence; assay type: in vivo; details: Lolium multiflorum, post-emergence, 240 h, 500 g ai/ha, postemergence; 0 to 100 scale, 0 is no effect, 100 is complete control; read-out: Ryegrass, Italian plant response rating
pest or weed control at 500 g/ha: recorded values
Attribute measured: pest or weed control at 500 g/ha (%)

> print(dat)
                           structure.smiles  value.observed
1  CC(C)Oc1ccc([C@H]2CNC(=O)[C@@H]2C(=O)Nc2ccc(F)cc2F)cc1               0
2  Cc1cc([C@H]2CNC(=O)[C@@H]2C(=O)Nc2ccccc2C(F)(F)F)ccc1Cl               0
3  CCc1cccc([C@H]2CCNC(=O)[C@@H]2C(=O)Nc2cccc(F)c2F)c1               0
4  CN1CC[C@H](c2ccc(C(F)(F)F)cc2)[C@@H](C(=O)Nc2cccc(F)c2F)C1=O              30
5  O=C1NC[C@H](c2cc(C(F)F)cs2)[C@H]1C(=O)Nc1ccccc1F              20
6  COc1cc([C@H]2CN(C)C(=O)[C@@H]2C(=O)Nc2ccccc2F)cc(OC)c1OC               0
7  N#Cc1cc([C@H]2CNC(=O)[C@]2(O)C(=O)Nc2ccccc2F)ccc1F               0
